Each entry below lists one item and its recorded log10(IC50) value.
# subject-of-test: human NK3 receptor (Homo sapiens, UniProt P29371)
# Construct: membranes prepared from them
# Sequence (P29371 whole entry): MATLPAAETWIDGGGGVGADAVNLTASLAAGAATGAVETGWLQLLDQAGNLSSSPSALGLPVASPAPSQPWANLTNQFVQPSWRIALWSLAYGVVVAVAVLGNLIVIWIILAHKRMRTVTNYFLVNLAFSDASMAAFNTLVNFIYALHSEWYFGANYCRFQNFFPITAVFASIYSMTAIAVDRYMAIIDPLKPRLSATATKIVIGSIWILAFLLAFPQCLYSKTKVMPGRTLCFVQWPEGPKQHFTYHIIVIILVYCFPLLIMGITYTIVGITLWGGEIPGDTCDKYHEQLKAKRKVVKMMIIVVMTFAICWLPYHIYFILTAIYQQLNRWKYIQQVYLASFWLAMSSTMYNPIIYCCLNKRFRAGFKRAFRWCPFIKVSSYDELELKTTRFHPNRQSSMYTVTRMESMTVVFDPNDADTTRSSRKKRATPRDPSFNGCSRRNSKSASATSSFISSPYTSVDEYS
# experiment: NK3 receptor efficacy and potency assay (FLIPR Calcium 4 assay, BHK cells; agonist and antagonist mode versus NKB)
# conditions-used: read-out: Potency cIC50
Parameter value (number): base-10 log of IC50 in nM.

CC[C@H](NC(=O)c1c(CN2CCN(CCN3CCCC3)CC2)n(-c2ccccc2)c(=O)c2ccccc12)c1ccccc1 | 2.34
CC[C@H](NC(=O)c1c(CN2CCCNCC2)n(-c2ccccc2)c(=O)c2c(Cl)cccc12)c1ccccc1 | 2.08
CC[C@H](NC(=O)c1c(CN2CCC(O)(c3cccc(OC)c3)CC2)n(-c2ccccc2)c(=O)c2ccccc12)c1ccccc1 | 1.34

What value of log10(IC50) has been reported for the following molecule? CC[C@H](NC(=O)c1c(CN2CCNC(=O)C2)n(-c2ccccc2)c(=O)c2ccccc12)c1ccccc1 2.65

// repeat for CC[C@H](NC(=O)c1c(CN2CC[C@H](O)C2)n(-c2ccccc2)c(=O)c2ccccc12)c1ccccc1 and report 2.38

// repeat for CC[C@H](NC(=O)c1c(CN2CCC(CCN3CCOCC3)CC2)n(-c2ccccc2)c(=O)c2ccccc12)c1ccccc1 and report 1.65

// repeat for CC(=O)N(C)C1(c2ccccc2)CCN(Cc2c(C(=O)NC(c3cccc(F)c3)C3CC3)c3ccccc3c(=O)n2-c2ccccc2)CC1 (stereo not shown) and report 2.00
